# method: melting temperature; fluorescence melt of hairpins on a sequencing array, two-state fit, raised by 9.35 °C to match UV melts
# condition-parameters: sodium 0.088 M
test-readout: Tm (°C)
The response must be a number in °C with no trailing unit.

Challenge: Provide Tm value for the following sequence: GATCTGGACGCAGATC ((((((....))))))
Response given: 51.3

Challenge: Provide Tm value for the following sequence: GATCAGGGGTCTGATC ((((((....))))))
Response given: 50.8

Challenge: Provide Tm value for the following sequence: GTTGAACCGAAAGGTAAC (((..(((....))))))
Response given: 31.1

Challenge: Provide Tm value for the following sequence: GCGGCTGCCCGC ((((....))))
Response given: 55

Challenge: Provide Tm value for the following sequence: GGGCCCCGAAAGGGACCC (((.(((....))).)))
Response given: 69

Challenge: Provide Tm value for the following sequence: GCTCCCGAAAGGGAGAGC ((((((....)))..)))
Response given: 65.8

Challenge: Provide Tm value for the following sequence: GTGCACGAAAGTGGTCAC ((((((....)))..)))
Response given: 40.2

Challenge: Provide Tm value for the following sequence: GTTAACGAAAGTTACAAC ((((((....)))..)))
Response given: 25.6

Challenge: Provide Tm value for the following sequence: GATCTTATACAAGATC ((((((....))))))
Response given: 42.6

Challenge: Provide Tm value for the following sequence: GACGACGAAAGTCTAGTC ((((((....)))..)))
Response given: 41.8

Challenge: Provide Tm value for the following sequence: GCCTACGAAAGTAGGGGC ((((((....)))..)))
Response given: 61.3

Challenge: Provide Tm value for the following sequence: GGAAGTGGAAACACTTTC (.(((((....))))).)
Response given: 45.2

Challenge: Provide Tm value for the following sequence: GAGTTCCGAAAGGACCTC (((.(((....))).)))
Response given: 47.2

Challenge: Provide Tm value for the following sequence: GTTCCACGAAAGTGTAAC (((.(((....))).)))
Response given: 38.4

Challenge: Provide Tm value for the following sequence: GCTTATGGAAACATGAGC (((.(((....))).)))
Response given: 45.6

Challenge: Provide Tm value for the following sequence: GTTGAAGGAAACTTCAAC (((((((....)))))))
Response given: 54.2

Challenge: Provide Tm value for the following sequence: GCCTCTGGAAACAGAGAC (.(((((....))))).)
Response given: 40.1

Challenge: Provide Tm value for the following sequence: GTGCACGAAAGTGGGCAC ((((((....)))..)))
Response given: 52.6

Challenge: Provide Tm value for the following sequence: GGCGACGAAAGTCTGGCC ((((((....)))..)))
Response given: 53.7

Challenge: Provide Tm value for the following sequence: GCCTGCGAAAGCACGGGC ((((((....)))..)))
Response given: 53

Challenge: Provide Tm value for the following sequence: TATCGGAAACGATA (((((....)))))
Response given: 43

Challenge: Provide Tm value for the following sequence: CGCGGAAGACTCCGCG ((((((....))))))
Response given: 62.8

Challenge: Provide Tm value for the following sequence: GCTACTGGAAACAGTAAC (.(((((....))))).)
Response given: 31.5

Challenge: Provide Tm value for the following sequence: GATGCGACGAAAGTCATC (((..(((....))))))
Response given: 27.8
